# Test system: ovalbumin-induced systemic edema
# protocol-notes: Ovalbumin-induced systemic edema method
# Assay type: in vivo
# condition-context: Rattus norvegicus; rats, oral 100 mg/kg one hour prior to and simultaneously with ovalbumin; 2 hours after ovalbumin injection; read-out: Percent anti-inflammatory activity after 2 hours
reported-endpoint: inhibition in vivo at 100 mg/kg (%)
Value expressed in %; do not type the unit.

Input: Which inhibition in vivo at 100 mg/kg is reported for this compound? CCOC(=O)c1sc2c(c1O)CN(Cc1ccccc1)CC2.Cl [Derivative n°4, hydrochloride]
Output: 48

Input: Which inhibition in vivo at 100 mg/kg is reported for this compound? CCCCOC(=O)c1sc2c(c1O)CN(Cc1ccccc1Cl)CC2 [Derivative n°10]
Output: 50

Input: Which inhibition in vivo at 100 mg/kg is reported for this compound? COC(=O)c1sc2c(c1O)CNCC2 [Derivative n°8]
Output: 48

---

# System: carrageenin-induced edema
# protocol-notes: Localised carrageenin-induced edema method
# Format: in vivo
# condition-context: Rattus norvegicus; rats, oral 100 mg/kg at -1, 0, 1 and 2.5 hours; 2 hours after carrageenin; read-out: Percent anti-inflammatory activity after 2 hours
Reported values of inhibition in vivo at 100 mg/kg for individual entries
Value expressed in %; do not type the unit.

Worked cases, answers included:
CCOC(=O)c1sc2c(c1O)CN(C(=O)c1ccccc1)CC2 | 48
CCOC(=O)c1sc2c(c1O)CN(CCc1ccccc1)CC2 | 46
CCOC(=O)c1sc2c(c1O)CN(Cc1ccccc1)CC2.Cl [Derivative n°4, hydrochloride] | 45
CCOC(=O)c1sc2c(c1OC(C)=O)CN(Cc1ccccc1Cl)CC2 | 45
CCOC(=O)c1sc2c(c1O)CN(C(=O)OCC)CC2 | 46
CCCCOC(=O)c1sc2c(c1O)CN(Cc1ccccc1Cl)CC2 | 42
CCOC(=O)c1sc2c(c1O)CN(C)CC2 | 40
COC(=O)c1sc2c(c1O)CNCC2 | 49
CCOC(=O)c1sc2c(c1O)CN(Cc1ccccc1Cl)CC2 | 53
CCOC(=O)c1sc2c(c1O)CNCC2 | 41

# context switch: different molecule, same inhibition in vivo at 100 mg/kg
Input: Which inhibition in vivo at 100 mg/kg is reported for this molecule? "COC(=O)c1sc2c(c1O)CN(Cc1ccccc1Cl)CC2"
Output: 47

---

# System: collagen-induced blood-platelet aggregation
# protocol-notes: Collagen-induced blood-platelet aggregation (plasma of orally treated rats)
# Assay type: in vivo, rats of Wistar strain
# condition-context: Rattus norvegicus, oral 100 mg/kg, 3 hours after treatment, collagen (bovine tendon extract), read-out: Percent inhibition of blood-platelet aggregation, Collagen
# Method: A blood sample is taken from the jugular vein of rats of Wistar strain. From this citrated blood, and after centrifugation, is reconstituted a plasma containing 600,000 ± 20,000 platelets per mm^3 which will be used in all aggregation determinations. 0.4 ml plasma is placed in a siliconized tube provided with a magnetic bar, which is also siliconized. […] The thus determined maximum variation of optical density characterizes the intensity of the aggregation. […]
Reported values of inhibition in vivo at 100 mg/kg for individual entries
Value expressed in %; do not type the unit.

Worked cases, answers included:
CCOC(=O)c1sc2c(c1O)CN(C)CC2 [Derivative n°6] | 93.2
CCOC(=O)c1sc2c(c1O)CN(Cc1ccccc1Cl)CC2 [Derivative n°1] | 90.2
CCOC(=O)c1sc2c(c1O)CN(CCc1ccccc1)CC2 [Derivative n°9] | 93.8
CCOC(=O)c1sc2c(c1OC(C)=O)CN(Cc1ccccc1Cl)CC2 [Derivative n°3] | 92.9
CCCCOC(=O)c1sc2c(c1O)CN(Cc1ccccc1Cl)CC2 [Derivative n°10] | 90.2

# context switch: different compound, same inhibition in vivo at 100 mg/kg
Input: Which inhibition in vivo at 100 mg/kg is reported for this compound? CCOC(=O)c1sc2c(c1O)CNCC2 [Derivative n°7]
Output: 95.6

---

# Test system: carrageenin-induced edema
# protocol-notes: Localised carrageenin-induced edema method
# Assay type: in vivo
# condition-context: Rattus norvegicus; rats, oral 100 mg/kg at -1, 0, 1 and 2.5 hours; 1 hour after carrageenin; read-out: Percent anti-inflammatory activity after 1 hour
Reported values of inhibition in vivo at 100 mg/kg for individual entries
Value expressed in %; do not type the unit.

Worked cases, answers included:
CCOC(=O)c1sc2c(c1O)CN(Cc1ccccc1Cl)CC2 | 46
CCOC(=O)c1sc2c(c1O)CN(Cc1ccccc1)CC2.Cl [Derivative n°4, hydrochloride] | 39
CCOC(=O)c1sc2c(c1O)CN(CCc1ccccc1)CC2 | 42

Input: Which inhibition in vivo at 100 mg/kg is reported for this compound? "CCOC(=O)c1sc2c(c1O)CN(C)CC2"
Output: 34

Input: Which inhibition in vivo at 100 mg/kg is reported for this compound? "COC(=O)c1sc2c(c1O)CN(Cc1ccccc1Cl)CC2"
Output: 41

---

# protocol-notes: Potentiation of hypnotics (infrahypnotic sodium pentobarbital)
# Assay type: in vivo
# condition-context: mice, oral 50 mg/kg, thirty minutes prior to i.p. infrahypnotic sodium pentobarbital
Reported values of percent animals put to sleep for individual entries
Value expressed in %; do not type the unit.

Worked cases, answers included:
CCOC(=O)c1sc2c(c1O)CN(C)CC2 [Derivative n°6] | 90
CCOC(=O)c1sc2c(c1O)CN(Cc1ccccc1)CC2.Cl [Derivative n°4] | 70
COC(=O)c1sc2c(c1O)CN(Cc1ccccc1Cl)CC2 [Derivative n°5] | 70
CCOC(=O)c1sc2c(c1O)CN(C(=O)OCC)CC2 [Derivative n°11] | 60
CCCCOC(=O)c1sc2c(c1O)CN(Cc1ccccc1Cl)CC2 [Derivative n°10] | 90
CCOC(=O)c1sc2c(c1OC(C)=O)CN(Cc1ccccc1Cl)CC2 [Derivative n°3] | 80
CCOC(=O)c1sc2c(c1O)CN(CCc1ccccc1)CC2 [Derivative n°9] | 100
CCOC(=O)c1sc2c(c1O)CNCC2 [Derivative n°7] | 90

Input: Which percent animals put to sleep is reported for this compound? CCOC(=O)c1sc2c(c1O)CN(Cc1ccccc1Cl)CC2 [Derivative n°1]
Output: 60

Input: Which percent animals put to sleep is reported for this compound? CCOC(=O)c1sc2c(c1O)CN(C(=O)c1ccccc1)CC2 [Derivative n°2]
Output: 60

Input: Which percent animals put to sleep is reported for this compound? COC(=O)c1sc2c(c1O)CNCC2 [Derivative n°8]
Output: 80

---

# System: carrageenin-induced edema
# protocol-notes: Localised carrageenin-induced edema method
# Assay type: in vivo
# condition-context: Rattus norvegicus; rats, oral 100 mg/kg at -1, 0, 1 and 2.5 hours; 1 hour after carrageenin; read-out: Percent anti-inflammatory activity after 1 hour
Criterion: inhibition in vivo at 100 mg/kg meeting or surpassing 40%. Met: yes. Not met: no.

These recorded examples may help you get a feel for the data.
CCOC(=O)c1sc2c(c1O)CN(C(=O)c1ccccc1)CC2 [Derivative n°2] | yes
COC(=O)c1sc2c(c1O)CNCC2 [Derivative n°8] | yes
CCOC(=O)c1sc2c(c1OC(C)=O)CN(Cc1ccccc1Cl)CC2 [Derivative n°3] | no
CCCCOC(=O)c1sc2c(c1O)CN(Cc1ccccc1Cl)CC2 [Derivative n°10] | no

Below: the item to evaluate.
Input: Does CCOC(=O)c1sc2c(c1O)CNCC2 [Derivative n°7] have a reported inhibition in vivo at 100 mg/kg of at least 40%?
Output: no

---

Reported values of inhibition in vivo at 100 mg/kg for individual entries
# System: ovalbumin-induced systemic edema
# protocol-notes: Ovalbumin-induced systemic edema method
# Format: in vivo
# condition-context: Rattus norvegicus; rats, oral 100 mg/kg one hour prior to and simultaneously with ovalbumin; 2 hours after ovalbumin injection; read-out: Percent anti-inflammatory activity after 2 hours
# Protocol: (b) Ovalbumin-induced systemic edema method Rats are administered a simultaneous intraperitoneal injection of 1 ml ovalbumin and 0.5 ml of a 1% aqueous Evans Blue solution. […] The intensity of the phenomenon thus induced is scored according to a scale from 1 to 5, according to the progress of the inflammatory syndrome. Thus are determined with respect to the control group the mean intensity and the percent decrease of the edema reaction, as a function of time. […]
Value expressed in %; do not type the unit.

Input: Which inhibition in vivo at 100 mg/kg is reported for this compound? "COC(=O)c1sc2c(c1O)CN(Cc1ccccc1Cl)CC2"
Output: 47

Input: Which inhibition in vivo at 100 mg/kg is reported for this compound? "CCOC(=O)c1sc2c(c1O)CN(Cc1ccccc1Cl)CC2"
Output: 54

Input: Which inhibition in vivo at 100 mg/kg is reported for this compound? "CCOC(=O)c1sc2c(c1O)CNCC2"
Output: 50

Input: Which inhibition in vivo at 100 mg/kg is reported for this compound? "CCOC(=O)c1sc2c(c1O)CN(C(=O)OCC)CC2"
Output: 51

Input: Which inhibition in vivo at 100 mg/kg is reported for this compound? "CCOC(=O)c1sc2c(c1O)CN(CCc1ccccc1)CC2"
Output: 53

Input: Which inhibition in vivo at 100 mg/kg is reported for this compound? "CCOC(=O)c1sc2c(c1O)CN(C(=O)c1ccccc1)CC2"
Output: 49

Input: Which inhibition in vivo at 100 mg/kg is reported for this compound? "CCOC(=O)c1sc2c(c1OC(C)=O)CN(Cc1ccccc1Cl)CC2"
Output: 51

Input: Which inhibition in vivo at 100 mg/kg is reported for this compound? "CCOC(=O)c1sc2c(c1O)CN(C)CC2"
Output: 52
